- Study target: human cloned dopamine D4.2 receptors (Homo sapiens, UniProt P21917, DEL265-296)
- Construct: expressed in transfected cells; host or cells: CHO cells (membranes)
- Sequence (P21917 with tags, fused parts or gaps DEL265-296): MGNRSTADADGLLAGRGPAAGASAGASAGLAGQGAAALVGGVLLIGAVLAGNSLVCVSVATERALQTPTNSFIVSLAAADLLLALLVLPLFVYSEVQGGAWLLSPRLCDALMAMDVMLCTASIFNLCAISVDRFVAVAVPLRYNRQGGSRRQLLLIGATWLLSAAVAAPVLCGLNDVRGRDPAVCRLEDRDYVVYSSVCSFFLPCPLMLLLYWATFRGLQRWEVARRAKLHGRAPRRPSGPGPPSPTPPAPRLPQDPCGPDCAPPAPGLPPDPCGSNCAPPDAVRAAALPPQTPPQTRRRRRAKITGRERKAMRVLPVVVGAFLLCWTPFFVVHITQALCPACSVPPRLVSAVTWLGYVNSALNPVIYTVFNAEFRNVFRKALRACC
- Assay summary: Inhibition of the binding of [3H]YM-09151-2 to human dopamine D4 receptors
- Conditions used: at 50 nM compound; [3H]YM-09151-2 0.06 nM, membranes of CHO cells; read-out: D4-bind. % inhibition of binding at 50 nM
Measured quantity: inhibition at 0.05 µM (%)
Only the number, expressed in %, is required.

The following molecules have reported results that may help.
[
  {
    "Molecule": "O=C(CCCCCN1CCC(c2c[nH]c3cc(Cl)ccc23)CC1)N1CCc2ccccc2C1 [Compound 10j]",
    "Measured quantity": "inhibition at 0.05 µM",
    "Val": 70
  },
  {
    "Molecule": "O=C(CCCCCN1CCC(c2c[nH]c3ccc(F)cc23)CC1)N1CCc2ccccc2C1 [Compound 10h]",
    "Measured quantity": "inhibition at 0.05 µM",
    "Val": 50
  }
]

# next molecule below
Report inhibition at 0.05 µM for O=C(CCCN1CCC(c2c[nH]c3cccc(F)c23)CC1)N1CCc2ccccc2C1 [Compound 10b] please.
81
